Values were extracted from patent US20240279221A1.

Target: SOS1:KRAS (G12C) interaction (Homo sapiens (Human), UniProt Q07889)
Sequence (Q07889 564-1049, stated change not applied): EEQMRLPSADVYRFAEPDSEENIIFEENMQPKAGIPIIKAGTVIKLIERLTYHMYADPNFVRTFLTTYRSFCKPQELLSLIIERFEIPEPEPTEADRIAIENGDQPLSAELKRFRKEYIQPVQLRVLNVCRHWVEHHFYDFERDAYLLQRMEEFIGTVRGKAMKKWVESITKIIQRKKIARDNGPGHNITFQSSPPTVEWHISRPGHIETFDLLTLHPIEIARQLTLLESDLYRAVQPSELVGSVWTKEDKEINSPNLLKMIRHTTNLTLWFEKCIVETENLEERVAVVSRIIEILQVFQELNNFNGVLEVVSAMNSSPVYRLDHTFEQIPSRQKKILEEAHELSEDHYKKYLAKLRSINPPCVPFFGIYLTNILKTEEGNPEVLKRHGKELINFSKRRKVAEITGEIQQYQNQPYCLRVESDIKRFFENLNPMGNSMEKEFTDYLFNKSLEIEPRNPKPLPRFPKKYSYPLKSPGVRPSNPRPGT
Assay: SOS1-KRas(G12C) FRET Assay
Assay type: binding
Conditions: 0.5 nM His10-SOS1 (res. 564-1049), 2.5 nM GST-KRAS (res. 1-169, G12C); read-out: SOS-KRas(G12C) FRET IC50
Protocol: Inhibition of the SOS1:KRAS interaction was measured using purified GST-tagged KRAS (res. 1-169, G12C, purified based on Hillig, et al., Proc Natl Acad Sci USA (2019); 116(7):2551-2560) and recombinant His10-SOS1 (res. 564-1049; purified based on Hillig, et al.). […] Plates were incubated at RT for 2 hrs before the FRET signal was measured using Envision at emission 665 nm and 615 nm. […]
pIC50: −log10 of the molar value.
Measured pIC50, listed per entry.
Property label: pIC50

>>> df
                                   molecule  endpoint_result
0  C[C@@H](Nc1nn(C)c(=O)c2cc(=O)n(C3CCOCC3)cc12)c1cccc2sccc12 [Example 62]             7.12
1  C[C@@H](Nc1nn(C)c(=O)c2cc(=O)n(C34CC(C(=O)N(C)C)(C3)C4)cc12)c1cccc(C(F)F)c1F [Example 69]             7.46
2  C[C@@H](Nc1nn(C)c(=O)c2cc(=O)n([C@@H]3CCOC[C@@H]3F)cc12)c1cccc(C(F)F)c1F (single isomer, unassigned) [Example 32]             5.98
3  Cc1c(=O)n(C2(C(F)F)CC2)cc2c(N[C@H](C)c3cccc(C(F)F)c3F)nn(C)c(=O)c12 [Example 74]             7.04
